Some binders, each annotated with its measured FACS signal at 0.32 nM.
target: human Claudin-6 (CLDN6) (human) (UniProt P56747); assay: FACS, limiting dilution, ARK2 cells
Reply with just the number.

Record excerpt, results attached:
[[record]]
binder = "AB S10 (antibody, V domains shown) VH: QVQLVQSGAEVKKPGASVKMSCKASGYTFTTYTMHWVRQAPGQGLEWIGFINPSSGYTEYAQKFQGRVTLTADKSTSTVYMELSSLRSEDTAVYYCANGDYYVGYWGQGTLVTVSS VL: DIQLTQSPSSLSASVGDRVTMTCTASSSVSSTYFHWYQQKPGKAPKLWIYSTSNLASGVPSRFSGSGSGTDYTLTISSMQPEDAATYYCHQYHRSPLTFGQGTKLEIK"
endpoint_result = 2080

[[record]]
binder = "AB S7 (antibody, V domains shown) VH: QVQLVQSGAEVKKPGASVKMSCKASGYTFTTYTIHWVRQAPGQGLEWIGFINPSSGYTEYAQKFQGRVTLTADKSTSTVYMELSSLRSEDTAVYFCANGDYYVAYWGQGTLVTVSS VL: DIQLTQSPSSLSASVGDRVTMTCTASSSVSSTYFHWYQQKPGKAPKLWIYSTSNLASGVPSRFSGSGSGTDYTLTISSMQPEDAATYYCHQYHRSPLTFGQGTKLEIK"
endpoint_result = 876

[[record]]
binder = "AB S9 (antibody, V domains shown) VH: QVQLVQSGAEVKKPGASVKMSCKASGYTFTTYTIHWVRQAPGQGLEWIGVINPSSGYTDYAQKFQGRVTLTADKSTSTVYMELSSLRSEDTAVYFCANGDYYVGYWGQGTLVTVSS VL: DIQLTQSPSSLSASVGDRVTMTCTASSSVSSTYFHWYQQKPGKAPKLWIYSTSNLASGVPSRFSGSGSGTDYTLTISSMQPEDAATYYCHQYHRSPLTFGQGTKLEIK"
endpoint_result = 2990


Could you now consider this next binder?
Problem: Provide FACS signal at 0.32 nM value for the following binder: AB S3 (antibody, V domains shown) VH: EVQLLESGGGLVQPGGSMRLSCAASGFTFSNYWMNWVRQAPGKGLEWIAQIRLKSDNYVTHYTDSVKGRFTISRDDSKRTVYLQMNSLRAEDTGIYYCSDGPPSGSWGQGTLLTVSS VL: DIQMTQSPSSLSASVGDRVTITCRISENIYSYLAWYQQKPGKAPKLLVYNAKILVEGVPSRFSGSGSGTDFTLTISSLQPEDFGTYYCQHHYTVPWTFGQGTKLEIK
Result: 372
